procedure.details: Compound solubility in water
Type: physicochemical
reported.metric: solubility (µg/mL)

Before answering, review these 10 worked examples.
{"compound": "Cc1cc(-c2cnc(Cl)c(F)c2)nc2c(C(=O)N[C@@H](C)C3CC3)ncn12", "result.unit": "µg/mL", "solubility": 1.9}
{"compound": "Cc1cc(-c2ccccn2)nc2c(C(=O)N[C@H]3CC[C@H](OCC(C)C)CC3)ncn12", "result.unit": "µg/mL", "solubility": 6.6}
{"compound": "Cc1cc(N2CCCC(F)(F)C2)nc2c(C(=O)NC(C3CC3)C(F)(F)F)ncn12 (stereo not drawn)", "result.unit": "µg/mL", "solubility": 17.2}
{"compound": "COCc1cc(-c2ccc(F)cc2)nc2c(C(=O)N[C@@H](C)C3CC3)ncn12", "result.unit": "µg/mL", "solubility": 22}
{"compound": "Cc1cc(OC2CC(F)(F)C2)nc2c(C(=O)NC(C3CC3)C(F)(F)F)ncn12 (stereo not drawn)", "result.unit": "µg/mL", "solubility": 21.9}
{"compound": "Cc1cc(C)n2cnc(C(=O)NC(c3ccc(F)cc3)C(F)(F)F)c2n1 (stereo not drawn)", "result.unit": "µg/mL", "solubility": 24.3}
{"compound": "Cc1cc(-c2ccc(Cl)nc2)nc2c(C(=O)NC(C)(C)C3CC3)ncn12", "result.unit": "µg/mL", "solubility": 1.1}
{"compound": "C#CC(C)(C)NC(=O)c1ncn2c(C)cc(-c3cccc(OC)n3)nc12", "result.unit": "µg/mL", "solubility": 4.9}
{"compound": "Cc1cc(-c2ccncc2)nc2c(C(=O)NC(C)(C)C3CC3)ncn12", "result.unit": "µg/mL", "solubility": 18.8}
{"compound": "Cc1cc(C)n2cnc(C(=O)NC(C)C(C)C3CC3)c2n1 (stereo not drawn)", "result.unit": "µg/mL", "solubility": 24.2}

P. Cc1cc(-c2ccc(F)cc2)nc2c(C(=O)NC(C)C3CCCO3)ncn12 (stereo not drawn)
Q. COc1cccc(-c2cc(C)n3cnc(C(=O)NC(C4CC4)C4CC4)c3n2)c1
R. C#CC(C)(C)NC(=O)c1ncn2c(C)cc(-c3cc(F)cc(OC)c3)nc12
S. COc1cccc(-c2cc(C)n3cnc(C(=O)NC(C4CC4)C(F)(F)F)c3n2)c1 (stereo not drawn)
T. COc1cc(C)n2cnc(C(=O)NC(c3ccc(F)cc3)C(F)(F)F)c2n1 (stereo not drawn)
Form: Sort by [solubility] Order [ ascending ] // list labels; follow requested order
R, S, Q, T, P

I. Cc1cc(-c2ccc(F)c(Cl)n2)nc2c(C(=O)N[C@@H](C)C3CC3)ncn12
II. Cc1cc(NC2CC2)nc2c(C(=O)NC(c3ccc(F)cc3)C(F)(F)F)ncn12 (stereo not drawn)
Looking only at measured solubility, which entry is lower, I or II ? Please identify the chosen entry by its label.
II

a. CO[C@H]1CC[C@H](C(C)(C)NC(=O)c2ncn3c(C)cc(-c4cccnc4)nc23)CC1
b. Cc1cc(-c2cc(F)ccc2F)nc2c(C(=O)N[C@@H](C)C3CC3)ncn12
Among a and b , whose measured solubility is the smaller figure? Respond with the label that goes with your answer.
b
(b: 5.5 µg/mL, a: 19.3 µg/mL)

A. Cc1cc(-c2ccnc(Cl)c2)nc2c(C(=O)N[C@@H](C)C3CC3)ncn12
B. COc1cc(F)cc(-c2cc(C)n3cnc(C(=O)NC(C)(C)C)c3n2)c1
// returns A or B , whichever has the lower solubility // respond with label for picked entry
B
(B: 0.1 µg/mL, A: 12.8 µg/mL)

1. C#CC(C)(C)NC(=O)c1ncn2c(C)cc(-c3cccc(F)c3)nc12
2. COc1ccccc1[C@H](C)NC(=O)c1ncn2c(C)cc(-c3ccc(F)cc3)nc12
From the recorded data, which exceeds the other in solubility: 1 or 2 ? API: response body contains the label of the selected item.
1

I. COc1cncc(-c2cc(C)n3cnc(C(=O)N[C@@H](C)C4CC4)c3n2)c1
II. COc1cc(-c2ccc(F)cc2)nc2c(C(=O)N[C@@H](C)C3CC3)ncn12
III. Cc1cc(C)n2cnc(C(=O)NC(C3CCCCC3)C(F)(F)F)c2n1 (stereo not drawn)
IV. Cc1cc(-c2cccc3ocnc23)nc2c(C(=O)NC(C3CC3)C(F)(F)F)ncn12 (stereo not drawn)
Rank order required: solubility, descending. Please write the labels in the order that was asked for.
I, III, IV, II

A. Cc1cc(-c2ccc(F)cc2)nc2c(C(=O)NC(C)(C)C)ncn12
B. Cc1cc(-c2cccc(OC3CC3)c2)nc2c(C(=O)NC(C)C(F)(F)F)ncn12 (stereo not drawn)
C. COc1cc(-c2cc(C)n3cnc(C(=O)NC(C4CC4)C4CC4)c3n2)ccc1F
D. Cc1cc(OC2CCC2)nc2c(C(=O)NC(C3CC3)C(F)(F)F)ncn12 (stereo not drawn)
E. CCc1cc(-c2ccc(F)cc2)nc2c(C(=O)N[C@@H](C)C3CC3)ncn12
# desc sort on solubility across 5 compounds The reply should contain the labels ordered as requested.
E, D, A, B, C
(E: 10.5 µg/mL, D: 5.5 µg/mL, A: 2 µg/mL, B: 0.7 µg/mL, C: 0.3 µg/mL)

P. CCC(NC(=O)c1ncn2c(C)cc(-c3ccccn3)nc12)c1ccc(F)cc1 (stereo not drawn)
Q. Cc1cc(-c2ccc3ncoc3c2)nc2c(C(=O)N[C@@H](C)C3CC3)ncn12
R. Cc1cc(-c2cnccn2)nc2c(C(=O)NC(C)(C)C3CC3)ncn12
S. C#CC(C)(C)NC(=O)c1ncn2c(C)cc(-c3cccc(Cl)c3)nc12
Order the records so the highest solubility appears first and the lowest last. Order the labels as requested and give them as your answer.
R, Q, P, S

----------
procedure.details: Compound solubility in water
Type: physicochemical
reported.metric: solubility (µg/mL)

Here are 5 compounds together with their reported answers.
{"compound": "Cc1cc(-c2cncnc2)nc2c(C(=O)NC(C)(C)C3CC3)ncn12 [III-57]", "reported.value": 23.4}
{"compound": "Cc1cc(-c2cncc(F)c2)nc2c(C(=O)N[C@@H](C)C3CC3)ncn12 [III-105]", "reported.value": 24.9}
{"compound": "Cc1cc(-c2cccc(F)c2)nc2c(C(=O)NC(C)(C)C)ncn12 [III-124]", "reported.value": 3.4}
{"compound": "CCc1cc(N2CCCC(F)(F)C2)nc2c(C(=O)NC(C3CC3)C(F)(F)F)ncn12 (stereo not drawn) [III-137]", "reported.value": 12}
{"compound": "CCOc1cccc(-c2cc(C)n3cnc(C(=O)N[C@@H](C)C4CC4)c3n2)n1 [III-155]", "reported.value": 1.7}

I. Cc1cc(C)n2cnc(C(=O)N[C@@H](C)C3CC4(CCC4)C3)c2n1 [III-102]
II. CCc1cc(-c2ccns2)nc2c(C(=O)NC(C3CC3)C(F)(F)F)ncn12 (stereo not drawn) [III-165]
For the two items I and II , which reports the higher solubility value? Reply with the label of the item you choose.
I

A. Cc1cc(-c2ccccn2)nc2c(C(=O)NC(CC(C)C)C3CC3)ncn12 (stereo not drawn) [III-27]
B. Cc1cc(N2CCC(C)(C)C2=O)nc2c(C(=O)NC(C3CC3)C(F)(F)F)ncn12 (stereo not drawn) [III-144]
Which of the two items, A and B , has the greater recorded solubility? When you have decided, please share the label of that item.
B
(B: 20.5 µg/mL, A: 4.6 µg/mL)

----------
target.entity: glucocerebrosidase (Gcase) (Homo sapiens, UniProt P04062)
Sequence (P04062 40-536): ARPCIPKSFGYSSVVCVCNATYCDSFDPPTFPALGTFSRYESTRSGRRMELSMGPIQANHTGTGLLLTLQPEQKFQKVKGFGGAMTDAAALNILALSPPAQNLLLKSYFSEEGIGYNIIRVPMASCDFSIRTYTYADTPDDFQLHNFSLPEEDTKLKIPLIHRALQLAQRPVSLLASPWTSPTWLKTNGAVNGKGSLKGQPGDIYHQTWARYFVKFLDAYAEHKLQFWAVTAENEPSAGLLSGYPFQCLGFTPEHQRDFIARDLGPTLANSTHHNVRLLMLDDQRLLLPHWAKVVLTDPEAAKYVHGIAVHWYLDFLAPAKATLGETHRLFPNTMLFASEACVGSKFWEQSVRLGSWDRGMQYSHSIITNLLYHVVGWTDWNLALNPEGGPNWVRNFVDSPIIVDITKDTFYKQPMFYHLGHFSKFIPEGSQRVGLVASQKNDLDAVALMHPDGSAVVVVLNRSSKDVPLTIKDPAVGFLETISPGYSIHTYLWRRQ
procedure.details: Glucocerebrosidase (Gcase) activation assay, 4-methylumbelliferyl-beta-D-glucopyranoside substrate, with saposin C
Assay type: biochemical
test.settings: 1 μM test compound; read-out: Percent Gcase Activation 1 μM Test Compound
Protocol: The ability of exemplary compounds to activate glucocerebrosidase (Gcase) was measured. A 484 μL aliquot of a 1.0 mg/mL solution of phosphatidylserine (PS) (Sigma P7769) in chloroform was evaporated under a stream of nitrogen for 1 hour. The lipid film was dissolved over 4 minutes of vigorous vortexing in 40 mL of 176 mM K2HPO4/50 mM citric acid (pH 4.7) containing 7.5 μL of triton X-100, resulting in a mixed micellar preparation with a composition of 0.32 mM triton and 0.37 mol % PS. […]
This listing pairs compounds with measured activation at 1 µM.

{"compound": "Cc1cc(-c2cccnc2)nc2c(C(=O)NC(C3CC3)C(F)(F)F)ncn12 (stereo not shown)", "reported.metric": "activation at 1 µM", "reported.value": "> 60%"}
{"compound": "Cc1nc2c(C(=O)N[C@@H](C)C3CC3)ncn2cc1-c1ccc(F)cc1", "reported.metric": "activation at 1 µM", "reported.value": "< 30%"}
{"compound": "COc1ccccc1-c1cc(C)n2cnc(C(=O)NC(C)C3CC3)c2n1 (stereo not shown)", "reported.metric": "activation at 1 µM", "reported.value": "> 60%"}
{"compound": "Cc1cc(-c2cccnc2)nc2c(C(=O)NC(C)C(C)C3CC3)ncn12 (stereo not shown)", "reported.metric": "activation at 1 µM", "reported.value": "30 to 60%"}
{"compound": "Cc1cc(-c2cccnc2)nc2c(C(=O)N[C@@H](C)c3ccccc3F)ncn12", "reported.metric": "activation at 1 µM", "reported.value": "30 to 60%"}
{"compound": "Cc1cc(-c2ccncc2)nc2c(C(=O)NC(CC(C)C)C3CC3)ncn12 (stereo not shown)", "reported.metric": "activation at 1 µM", "reported.value": "> 60%"}
{"compound": "Cc1cc(-c2ccccn2)nc2c(C(=O)NC(C)(C)C3CC3)ncn12", "reported.metric": "activation at 1 µM", "reported.value": "> 60%"}
{"compound": "Cc1cc(-c2nccs2)nc2c(C(=O)NC(C)(C)C3CC3)ncn12", "reported.metric": "activation at 1 µM", "reported.value": "> 60%"}
{"compound": "Cc1cc(N2CCCC(F)(F)C2)nc2c(C(=O)NC(C3CC3)C(F)(F)F)ncn12 (stereo not shown)", "reported.metric": "activation at 1 µM", "reported.value": "> 60%"}
{"compound": "Cc1cc(-c2ccncc2)nc2c(C(=O)NC(C)(C)C3CC3)ncn12", "reported.metric": "activation at 1 µM", "reported.value": "< 30%"}

Provide value of activation at 1 µM for this record tested with glucocerebrosidase (Gcase) (Homo sapiens, UniProt P04062): C#CC(C)(C)NC(=O)c1ncn2c(C)cc(-c3cccc(OC)c3)nc12
> 60%

Cc1cc(-c2ccccn2)nc2c(C(=O)NC(C3CC3)C(F)(F)F)ncn12 (stereo not shown) , same question.
> 60%

Also CCCCO[C@H]1C[C@H]2CC[C@@H](C1)[C@H]2NC(=O)c1ncn2c(C)cc(-c3cccnc3)nc12 , if possible.
> 60%

Consider next the compound Cc1cc(OC2CC2)nc2c(C(=O)NC(C3CC3)C3CC3)ncn12 in the same way.
30 to 60%

Likewise for C#CC(C)(C)NC(=O)c1ncn2c(C)cc(-c3cccc(Cl)c3)nc12 ?
> 60%

Then what about the compound C[C@H](NC(=O)c1ncn2cc(-c3ccc(F)cc3)cnc12)C1CC1 ?
< 30%

Same again, this time with Cc1cc(-c2cccc(F)c2)nc2c(C(=O)NC(C)(C)C3CC3)ncn12
> 60%

How about COc1cccc(-c2cc(C)n3cnc(C(=O)NC(C)(C)C)c3n2)c1 ?
> 60%

Next compound up: Cc1cc(-c2cccc3ocnc23)nc2c(C(=O)NC(C3CC3)C(F)(F)F)ncn12 (stereo not shown)
> 60%
